target: Calcium/calmodulin-dependent protein kinase type IV (Homo sapiens) (UniProt Q16566); assay: Inhibition of recombinant human full length GST-tagged CAMK4 expressed in Escherichia coli at 500 nM by Z-LYTE assay relative to control
Sequence (Q16566 whole entry): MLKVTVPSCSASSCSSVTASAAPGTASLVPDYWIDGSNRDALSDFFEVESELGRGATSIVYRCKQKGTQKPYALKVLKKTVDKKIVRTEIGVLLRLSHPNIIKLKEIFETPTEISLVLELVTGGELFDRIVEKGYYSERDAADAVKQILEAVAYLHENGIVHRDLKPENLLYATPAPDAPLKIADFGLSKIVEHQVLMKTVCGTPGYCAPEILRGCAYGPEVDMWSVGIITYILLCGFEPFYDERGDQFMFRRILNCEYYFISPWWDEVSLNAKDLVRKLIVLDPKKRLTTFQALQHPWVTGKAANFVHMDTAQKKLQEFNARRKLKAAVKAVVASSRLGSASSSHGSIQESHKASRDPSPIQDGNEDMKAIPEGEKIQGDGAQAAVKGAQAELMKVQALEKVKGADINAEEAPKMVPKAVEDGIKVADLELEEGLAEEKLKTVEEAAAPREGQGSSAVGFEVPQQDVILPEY
QUANTITY_KIND: inhibition (%)

{"STRUCTURE_SMILES": "OCc1ccc(-c2cc3c(N[C@H](CO)c4ccccc4)ncnc3[nH]2)cc1", "RESULT_UNIT": "%", "NUMERIC_RESULT": 6}

A. CCC(=O)Nc1ccc(-c2c[nH]c3ncnc(N[C@H](C)c4ccccc4)c23)cc1
B. OC[C@@H](Nc1ncnc2sc(-c3ccc(O)cc3)cc12)c1ccccc1
C. CN(C)CCn1cc(-c2cccc(O)c2)c2c(N)ncnc21
Task: // ascending sort on recorded inhibition Answer format: the labels, ordered as requested.
Result: B, C, A
(B: -9%, C: 2%, A: 5%)

----------
target: Tyrosine-protein kinase Lck (Homo sapiens) (UniProt P06239); experiment: Inhibition of recombinant full-length human His-tagged LCK expressed in baculovirus expression system at 500 nM by Z-LYTE assay relative to control
Sequence (P06239 2-509 limits assumed): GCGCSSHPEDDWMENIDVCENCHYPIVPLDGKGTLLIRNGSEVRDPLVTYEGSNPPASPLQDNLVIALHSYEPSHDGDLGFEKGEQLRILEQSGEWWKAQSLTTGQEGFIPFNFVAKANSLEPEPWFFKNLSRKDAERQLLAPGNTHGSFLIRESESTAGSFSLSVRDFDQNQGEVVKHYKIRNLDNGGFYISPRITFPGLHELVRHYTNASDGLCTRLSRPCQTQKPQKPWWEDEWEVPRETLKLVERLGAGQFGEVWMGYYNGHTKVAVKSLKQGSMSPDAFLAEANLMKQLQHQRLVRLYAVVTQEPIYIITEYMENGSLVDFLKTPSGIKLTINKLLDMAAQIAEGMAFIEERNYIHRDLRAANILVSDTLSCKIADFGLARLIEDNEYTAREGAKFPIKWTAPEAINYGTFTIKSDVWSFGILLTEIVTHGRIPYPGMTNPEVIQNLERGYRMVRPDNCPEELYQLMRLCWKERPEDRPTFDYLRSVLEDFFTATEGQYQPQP
QUANTITY_KIND: inhibition (%)

Recorded results for 2 compounds are shown here.
{"STRUCTURE_SMILES": "CCC(=O)Nc1ccc(-c2c[nH]c3ncnc(N[C@H](C)c4ccccc4)c23)cc1", "RESULT_UNIT": "%", "inhibition": 19}
{"STRUCTURE_SMILES": "OCc1ccc(-c2cc3c(N[C@H](CO)c4ccccc4)ncnc3[nH]2)cc1", "RESULT_UNIT": "%", "inhibition": 36}

P. CN(C)CCn1cc(-c2cccc(O)c2)c2c(N)ncnc21
Q. OC[C@@H](Nc1ncnc2sc(-c3ccc(O)cc3)cc12)c1ccccc1
Task: Consider entries P and Q . Which has the numerically lower inhibition? Pick one and reply with its label.
Result: Q
(Q: 3%, P: 32%)

----------
target: Protein kinase C theta type (Homo sapiens) (UniProt Q04759); test: Inhibition of recombinant full length human His-tagged PKCtheta expressed in baculovirus expression system at 500 nM by Z-LYTE assay relative to control
Sequence (Q04759 whole entry, looked up): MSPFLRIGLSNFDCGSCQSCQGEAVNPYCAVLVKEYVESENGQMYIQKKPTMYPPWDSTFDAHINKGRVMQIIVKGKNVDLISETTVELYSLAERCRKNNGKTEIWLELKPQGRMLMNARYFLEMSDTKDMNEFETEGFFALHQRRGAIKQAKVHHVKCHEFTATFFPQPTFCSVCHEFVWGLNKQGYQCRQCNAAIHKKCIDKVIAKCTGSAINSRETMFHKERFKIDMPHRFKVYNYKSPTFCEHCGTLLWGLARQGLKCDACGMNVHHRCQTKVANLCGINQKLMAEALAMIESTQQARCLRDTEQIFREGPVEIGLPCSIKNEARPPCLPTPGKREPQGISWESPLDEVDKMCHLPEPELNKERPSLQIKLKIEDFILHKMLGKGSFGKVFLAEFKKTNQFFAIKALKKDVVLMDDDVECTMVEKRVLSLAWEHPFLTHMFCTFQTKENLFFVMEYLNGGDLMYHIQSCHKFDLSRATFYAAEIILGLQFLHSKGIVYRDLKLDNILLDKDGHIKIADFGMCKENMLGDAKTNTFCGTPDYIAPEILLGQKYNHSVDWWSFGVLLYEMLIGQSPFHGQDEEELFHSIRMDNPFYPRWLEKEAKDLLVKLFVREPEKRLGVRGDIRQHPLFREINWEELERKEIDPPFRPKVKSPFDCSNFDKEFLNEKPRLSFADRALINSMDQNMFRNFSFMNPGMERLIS
QUANTITY_KIND: inhibition (%)

{"STRUCTURE_SMILES": "CN(C)CCn1cc(-c2cccc(O)c2)c2c(N)ncnc21", "QUANTITY_KIND": "inhibition", "RESULT_UNIT": "%", "NUMERIC_RESULT": 8}

I. OC[C@@H](Nc1ncnc2sc(-c3ccc(O)cc3)cc12)c1ccccc1
II. OCc1ccc(-c2cc3c(N[C@H](CO)c4ccccc4)ncnc3[nH]2)cc1
III. CCC(=O)Nc1ccc(-c2c[nH]c3ncnc(N[C@H](C)c4ccccc4)c23)cc1
Task: // ascending sort on recorded inhibition Answer format: the labels, ordered as requested.
Result: I, II, III

----------
molecular target: Proto-oncogene tyrosine-protein kinase ROS (Homo sapiens); test: Inhibition of recombinant human GST-tagged ROS1 cytoplasmic domain (1883 to 2347 residues) expressed in baculovirus expression system at 500 nM by Z-LYTE assay relative to control
QUANTITY_KIND: inhibition (%)

Recorded results for 2 molecules are shown here.
{"STRUCTURE_SMILES": "OCc1ccc(-c2cc3c(N[C@H](CO)c4ccccc4)ncnc3[nH]2)cc1", "TARGET_DESC": "Proto-oncogene tyrosine-protein kinase ROS (Homo sapiens)", "QUANTITY_KIND": "inhibition", "RESULT_UNIT": "%", "NUMERIC_RESULT": 71}
{"STRUCTURE_SMILES": "CCC(=O)Nc1ccc(-c2c[nH]c3ncnc(N[C@H](C)c4ccccc4)c23)cc1", "TARGET_DESC": "Proto-oncogene tyrosine-protein kinase ROS (Homo sapiens)", "QUANTITY_KIND": "inhibition", "RESULT_UNIT": "%", "NUMERIC_RESULT": 22}

A. CN(C)CCn1cc(-c2cccc(O)c2)c2c(N)ncnc21
B. OC[C@@H](Nc1ncnc2sc(-c3ccc(O)cc3)cc12)c1ccccc1
Task: Please tell me which of the two, A or B , has the higher reported inhibition value. Pick one and reply with its label.
Result: B
